pIC50 overview
tgt: H1047R PIK3CA enzyme (Homo sapiens, UniProt P42336, H1047R)
Sequence (P42336 whole entry H1047R): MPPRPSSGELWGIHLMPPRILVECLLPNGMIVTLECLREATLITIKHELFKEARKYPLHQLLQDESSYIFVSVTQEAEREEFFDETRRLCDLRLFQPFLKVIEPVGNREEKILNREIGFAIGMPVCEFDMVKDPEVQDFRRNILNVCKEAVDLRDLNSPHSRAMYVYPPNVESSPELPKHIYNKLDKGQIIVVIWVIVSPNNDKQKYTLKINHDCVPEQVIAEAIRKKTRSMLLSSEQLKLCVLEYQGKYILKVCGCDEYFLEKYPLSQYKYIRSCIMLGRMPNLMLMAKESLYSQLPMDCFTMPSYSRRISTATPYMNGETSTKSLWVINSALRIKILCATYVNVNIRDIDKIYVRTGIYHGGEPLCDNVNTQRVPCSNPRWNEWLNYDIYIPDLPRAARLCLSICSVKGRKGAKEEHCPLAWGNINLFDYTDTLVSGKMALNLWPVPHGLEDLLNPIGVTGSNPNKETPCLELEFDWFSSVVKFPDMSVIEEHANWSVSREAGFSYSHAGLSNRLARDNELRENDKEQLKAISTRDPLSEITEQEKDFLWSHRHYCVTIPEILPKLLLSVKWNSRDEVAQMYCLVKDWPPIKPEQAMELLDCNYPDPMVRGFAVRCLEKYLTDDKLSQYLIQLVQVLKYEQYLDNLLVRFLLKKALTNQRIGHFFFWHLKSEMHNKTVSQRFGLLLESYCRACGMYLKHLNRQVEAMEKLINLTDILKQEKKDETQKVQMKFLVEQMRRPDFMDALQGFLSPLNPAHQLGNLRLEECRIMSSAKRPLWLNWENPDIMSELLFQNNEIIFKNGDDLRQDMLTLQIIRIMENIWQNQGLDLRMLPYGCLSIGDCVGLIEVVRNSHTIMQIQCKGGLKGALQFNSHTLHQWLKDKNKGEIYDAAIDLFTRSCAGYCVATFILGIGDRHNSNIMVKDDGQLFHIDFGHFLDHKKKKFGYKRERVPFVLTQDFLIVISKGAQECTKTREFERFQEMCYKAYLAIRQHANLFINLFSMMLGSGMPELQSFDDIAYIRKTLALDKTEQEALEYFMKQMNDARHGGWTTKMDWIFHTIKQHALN
Sequence (P27986 whole entry partner): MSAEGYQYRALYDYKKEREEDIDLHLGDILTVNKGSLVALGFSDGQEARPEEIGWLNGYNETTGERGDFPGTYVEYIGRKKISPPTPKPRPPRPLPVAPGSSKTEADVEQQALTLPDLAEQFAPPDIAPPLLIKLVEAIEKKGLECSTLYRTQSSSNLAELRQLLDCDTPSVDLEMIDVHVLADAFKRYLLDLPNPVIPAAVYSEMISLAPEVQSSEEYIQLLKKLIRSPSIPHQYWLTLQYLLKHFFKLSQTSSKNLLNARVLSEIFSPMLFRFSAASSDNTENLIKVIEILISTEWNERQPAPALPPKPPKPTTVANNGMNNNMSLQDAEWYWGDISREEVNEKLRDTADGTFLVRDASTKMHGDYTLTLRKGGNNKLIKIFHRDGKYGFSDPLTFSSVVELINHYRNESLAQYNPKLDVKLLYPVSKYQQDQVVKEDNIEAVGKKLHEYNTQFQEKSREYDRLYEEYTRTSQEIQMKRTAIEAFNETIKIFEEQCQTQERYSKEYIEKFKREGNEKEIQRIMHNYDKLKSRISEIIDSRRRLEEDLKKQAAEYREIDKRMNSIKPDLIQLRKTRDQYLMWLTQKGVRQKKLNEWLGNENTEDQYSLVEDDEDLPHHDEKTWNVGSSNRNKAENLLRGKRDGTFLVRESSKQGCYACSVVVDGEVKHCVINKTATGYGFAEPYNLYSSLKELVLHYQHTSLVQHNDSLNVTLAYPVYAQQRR
protocolDescription: ADP-Glo Biochemical PIK3CA Kinase Assay
pIC50: −log10 of the molar value.

Nc1nc2cc(-c3cc(NC(=O)c4cc(F)cc(C(F)(F)F)c4)c4c(c3)C(=O)N[C@H]4c3cc(F)ccc3Cl)ccn2n1 | ≥ 7.00
Cn1ccc2c(C(=O)Nc3cc(Br)cc4c3C(c3cc(F)ccc3Cl)NC4=O)ccnc21 (stereo not drawn) | 4.00 to 5.00

Ask | Tell me its pIC50 given O=C1N[C@@H](c2cc(F)ccc2Cl)c2c(NC(=O)N3C[C@@H](O)c4cc(F)ccc43)cc(-c3cnn(C(F)F)c3)cc21 (single isomer, unassigned) as the entry.
Reply | ≥ 7.00

Ask | Recall and state the measured pIC50 for O=C1N[C@@H](c2cc(F)ccc2Cl)c2c(NC(=O)N3C[C@H](O)c4cc(F)ccc43)cc(-n3nccn3)cc21 (single isomer, unassigned) [Compound I-2343] .
Reply | 5.00 to 6.00

Ask | Supply measured pIC50 of `CC1(Cc2cc(NC(=O)c3cc(F)cc(C(F)(F)F)c3)c3c(c2)C(=O)N[C@@H]3c2cc(F)ccc2Cl)COC1` in your reply.
Reply | 5.00 to 6.00

Ask | For N#Cc1cc(NC(=O)c2cc(F)cc(Cl)c2)c2c(c1)C(=O)NC2c1cc(F)ccc1Cl (stereo not drawn) , write its pIC50.
Reply | ≥ 7.00

Ask | Supply recorded pIC50 for O=C(Nc1cc(OCC2(O)COC2)cc2c1C(c1cc(F)ccc1Cl)NC2=O)c1cc(F)cc(C(F)(F)F)c1 (stereo not drawn) here.
Reply | 6.30 to 7.00

Ask | Tell us which pIC50 value is on record for `Cn1nccc1Nc1cc(NC(=O)c2cc(F)cc(C(F)(F)F)c2)c2c(c1)C(=O)N[C@@H]2c1cc(F)ccc1Cl`
Reply | 5.00 to 6.00

Ask | Tell me pIC50 reported for O=C1NC(c2cc(F)ccc2Cl)c2c(Nc3nccc4ccccc34)cc(Br)cc21 (stereo not drawn)
Reply | 5.00 to 6.00

Ask | Entry CC(C)(C)CCC1NC(=O)c2cccc(NC(=O)c3cc(F)cc(C(F)(F)F)c3)c21 (stereo not drawn) needs its pIC50 filled in; supply it.
Reply | 5.00 to 6.00
